- tested_system: DLL3 on SHP-77 cells (human) (UniProt Q9NYJ7)
- Sequence (Q9NYJ7 27-618 limits assumed): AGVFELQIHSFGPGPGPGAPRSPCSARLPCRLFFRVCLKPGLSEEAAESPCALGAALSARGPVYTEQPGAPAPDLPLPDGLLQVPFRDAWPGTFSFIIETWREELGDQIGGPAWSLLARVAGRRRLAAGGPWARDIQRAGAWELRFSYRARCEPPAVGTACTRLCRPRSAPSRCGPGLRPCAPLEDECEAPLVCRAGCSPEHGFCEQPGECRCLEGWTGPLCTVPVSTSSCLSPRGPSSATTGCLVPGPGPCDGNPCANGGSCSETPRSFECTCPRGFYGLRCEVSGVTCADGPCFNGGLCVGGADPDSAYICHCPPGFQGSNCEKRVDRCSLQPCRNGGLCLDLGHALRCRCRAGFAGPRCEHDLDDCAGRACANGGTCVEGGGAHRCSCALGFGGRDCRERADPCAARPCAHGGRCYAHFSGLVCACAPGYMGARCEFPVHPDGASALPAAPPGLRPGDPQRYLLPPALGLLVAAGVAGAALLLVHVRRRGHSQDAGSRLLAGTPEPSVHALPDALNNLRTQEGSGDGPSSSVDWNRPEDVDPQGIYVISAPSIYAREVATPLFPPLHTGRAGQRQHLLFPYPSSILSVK
- measurement_notes: 177Lu-labelled peptide on SHP-77 cells, 1 h 37 C, gamma count of bound fraction
Numbered stars: 1 amine (or outer) side, 2 acyl side, 3 side chain; on linkers, the order of the positions; unused ones are H or OH. Bridge positions count the residues as written; N and C are the ends. Square brackets hold non-standard residues; d marks the D form. Ala(piperidin-4-yl) = O=C([C@H](CC1CCN([*:3])CC1)N[*:1])[*:2]; 1Nal = N[C@@H](Cc1cccc2ccccc12)C(=O)O; 2Nal = N[C@@H](Cc1ccc2ccccc2c1)C(=O)O; tBuAla = CC(C)(C)C[C@H](N)C(=O)O; AllylGly = C=CC[C@H](N)C(=O)O; PAF(DOTA) = not defined here; αMeP = C[C@@]1(C(=O)O)CCCN1; NMeS = CN[C@@H](CO)C(=O)O
experimental_readout: % Binding (%)
# unit: % | format: bare number

Solved entries:
Ac-[Ala(piperidin-4-yl)]SD[AllylGly][1Nal][tBuAla][PAF(DOTA)][2Nal]N[AllylGly][αMeP]FD-NH2 (staple 4-10; reading uncertain; also: 177Lu chelated) [[177Lu]Lu-Cpd #200]    6
Ac-[Ala(piperidin-4-yl)][NMeS]NC[1Nal][tBuAla][PAF(DOTA)][2Nal]DC[αMeP]FD-NH2 (disulfide 4-10; reading uncertain; also: 177Lu chelated, printed as Ac-[3-(4-piperidinyl)-Ala]-(NMe-Ser)-N-C(3)-(1Nal)-(t-Bu-Ala)-[PAF(DOTA)]-(2Nal)-D-C(3)-(aMe-P)-F-D-CONH2; (3)=disulfide; 177Lu chelated) [[177Lu]Lu-Cpd #192]    9

# evaluate next
# input Can you share its % Binding? I mean this binder: Ac-[dA]SDC[1Nal][tBuAla][PAF(DOTA)][2Nal]NC[αMeP]FD-NH2 (disulfide 4-10; reading uncertain; also: 177Lu chelated, printed as Ac-(D-Ala)-S-D-C(3)-(1Nal)-(t-Bu-Ala)-[PAF(DOTA)]-(2Nal)-N-C(3)-(aMe-P)-F-D-CONH2; (3)=disulfide; 177Lu chelated) [[177Lu]Lu-Cpd #158]
# output 25
